System: SN12C renal
Assay: NCI tumour cell line growth inhibition, 48 h; in the data active = GI50 below about 0.43 µM; inactive = the rest
Hello, when you answer, please use one of the following outcomes: active, inactive

Take a look at these entries with their results.
compound: C=C/C(C)=C/C[C@]1(C)[C@H](C)[C@@H](OC(=O)CCC)[C@H](O)[C@@]23C(=C[C@H](OC)C[C@@H]12)[C@@H](OC(=O)CCC)O[C@H]3OC(C)=O
class-assignment: active

compound: CCOc1ccc2c(c1)C(=O)c1c-2n(CCCBr)c(=O)c2cc([N+](=O)[O-])ccc12
class-assignment: inactive

compound: O=C(Nc1ccc(F)cc1F)c1cc(Cl)ccc1O
class-assignment: inactive

compound: CCCCCN(CCCCC)CC(O)c1cc(Cl)ccc1OC (stereo not given)
class-assignment: inactive

Hi, do you know how COC(=O)c1cc2c(cc1Cl)SC1=NN(C)S(=O)N1S2(=O)=O (stereo not given) came out in this test?
inactive

* * *

System: EKVX NSCLC
Experiment: NCI tumour cell line growth inhibition, 48 h
Below, each entry is listed alongside its reported GI50.

molecule: CNNC(=N\S(=O)(=O)c1cc(C)c(Cl)cc1SCc1ccccc1)/N=C/c1ccc([N+](=O)[O-])s1
GI50: > 29.6 µM
//
molecule: CN1CCN(CCOc2ccc(-c3cnc4c(-c5cccc(F)c5)cnn4c3)cc2)CC1
GI50: 1.72 µM
//
molecule: CCCCCN(CCCCC)CC(O)c1cc(Cl)ccc1OC (stereo not drawn)
GI50: 6.39 µM

Indicate the recorded GI50 value for this molecule: Cc1ccc2nc(-c3ccc(OCC(=O)N=Nc4c(O)[nH]c5ccccc45)cc3)[nH]c2c1
28 µM

Give a short answer stating reported GI50 for C#CCNC(=S)N/N=C(\C)c1ccccn1 .
0.595 µM

Complete the entry with GI50 for Cn1cccc1-c1cc(-c2ccccc2)[nH]c(=O)c1C#N
37.3 µM

Indicate its recorded GI50; the molecule in question is Oc1c(Cl)cc(Cl)c2ccc(Cn3cc(-c4cc(C(F)(F)F)cc(C(F)(F)F)c4)nn3)nc12
7.65 µM

Complete the entry with GI50 for CCN1CCN(Cc2ccc(NC(=O)Nc3nc4ccc(Oc5ccnc(C(=O)NC)c5)cc4s3)cc2C(F)(F)F)CC1
2.01 µM

# return recorded GI50 for input O=c1c2cc(-c3ccccc3)sc2ncn1Cc1ccc(Cl)c(Cl)c1
16.3 µM

For the molecule C=C/C(C)=C/C[C@]1(C)[C@H](C)[C@@H](OC(=O)CCC)[C@H](O)[C@@]23C(=C[C@H](OC)C[C@@H]12)[C@@H](OC(=O)CCC)O[C@H]3OC(C)=O , give its measured GI50 value.
0.987 µM

Item COC(=O)c1cc2c(cc1Cl)SC1=NN(C)S(=O)N1S2(=O)=O (stereo not drawn) : provide GI50
> 100 µM

Return reported GI50. Input molecule: CCCCCCCC(=O)OCCCC1[C@]2(C)CC[C@@]3(C)C([C@H](C)CCC=C(C)C)CC[C@]3(C)C2CC[C@]12OC2(C)C (stereo partly drawn)
49.7 µM

Report GI50, nothing else, for this molecule: CSc1ncc(Br)c(Sc2nc(N)nc3nc[nH]c23)n1
3.07 µM

* * *

Tested on: RXF 393 renal
Assay: NCI tumour cell line growth inhibition, 48 h; in the data active = GI50 below about 0.43 µM; inactive = the rest
Return exactly one item of 1 (yes) for active, 0 (no) for inactive

input-smiles: COc1ccc(Nc2nc3ccccc3c3occc23)cc1
assayed-target: RXF 393 renal
class-assignment: 0 (no)
//
input-smiles: C=C1C(=O)O[C@H]2[C@H]1CC/C(COC(=O)NCc1ccc(OC)cc1)=C\CC[C@@]1(C)O[C@@H]21
assayed-target: RXF 393 renal
class-assignment: 0 (no)
//
input-smiles: CC(C)c1nc(N(C)S(C)(=O)=O)nc(-c2ccc(F)cc2)c1/C=C/[C@@H](O)C[C@@H](O)CC(=O)O
assayed-target: RXF 393 renal
class-assignment: 0 (no)
//
input-smiles: CN1CCN(Cc2ccc(NC(=O)c3cncc(C#Cc4cnc(N)cc4C#N)c3)cc2C(F)(F)F)CC1
assayed-target: RXF 393 renal
class-assignment: 0 (no)
//
input-smiles: CC(C)(O)/C=C/C(=O)[C@](C)(O)[C@H]1[C@H](O)C[C@@]2(C)[C@@H]3CC=C4[C@@H](C[C@H](O)C(=O)C4(C)C)[C@]3(C)C(=O)C[C@]12C
assayed-target: RXF 393 renal
class-assignment: 1 (yes)
//
input-smiles: O=c1c2cc(-c3ccccc3)sc2ncn1Cc1ccc(Cl)c(Cl)c1
assayed-target: RXF 393 renal
class-assignment: 0 (no)
//
input-smiles: COc1ccc(C(=O)c2cc3c(N)c(C(=O)Nc4ccccc4)sc3nc2C)cc1
assayed-target: RXF 393 renal
class-assignment: 0 (no)
//
input-smiles: COc1cccc(CN(C)c2ccc(CO)c(Cl)c2)c1
assayed-target: RXF 393 renal
class-assignment: 0 (no)

Which outcome was assigned to CCOC(=O)c1c(C)n(Cc2ccc(Cl)cc2Cl)c2c1cc1oc(=O)c(=O)n3cnc2c13 in this test?
0 (no)
